Here, each record is paired with measured Emax data.
- Target entity: F508delCFTR (Homo sapiens, UniProt P13569, DEL508-508)
- Construct: expressed in transfected cells; host or cells: CFBE41o- human lung-derived epithelial cells (CFBE41o-F508delCFTR-HRP), doxycycline-inducible
- Sequence (P13569 with tags, fused parts or gaps DEL508-508): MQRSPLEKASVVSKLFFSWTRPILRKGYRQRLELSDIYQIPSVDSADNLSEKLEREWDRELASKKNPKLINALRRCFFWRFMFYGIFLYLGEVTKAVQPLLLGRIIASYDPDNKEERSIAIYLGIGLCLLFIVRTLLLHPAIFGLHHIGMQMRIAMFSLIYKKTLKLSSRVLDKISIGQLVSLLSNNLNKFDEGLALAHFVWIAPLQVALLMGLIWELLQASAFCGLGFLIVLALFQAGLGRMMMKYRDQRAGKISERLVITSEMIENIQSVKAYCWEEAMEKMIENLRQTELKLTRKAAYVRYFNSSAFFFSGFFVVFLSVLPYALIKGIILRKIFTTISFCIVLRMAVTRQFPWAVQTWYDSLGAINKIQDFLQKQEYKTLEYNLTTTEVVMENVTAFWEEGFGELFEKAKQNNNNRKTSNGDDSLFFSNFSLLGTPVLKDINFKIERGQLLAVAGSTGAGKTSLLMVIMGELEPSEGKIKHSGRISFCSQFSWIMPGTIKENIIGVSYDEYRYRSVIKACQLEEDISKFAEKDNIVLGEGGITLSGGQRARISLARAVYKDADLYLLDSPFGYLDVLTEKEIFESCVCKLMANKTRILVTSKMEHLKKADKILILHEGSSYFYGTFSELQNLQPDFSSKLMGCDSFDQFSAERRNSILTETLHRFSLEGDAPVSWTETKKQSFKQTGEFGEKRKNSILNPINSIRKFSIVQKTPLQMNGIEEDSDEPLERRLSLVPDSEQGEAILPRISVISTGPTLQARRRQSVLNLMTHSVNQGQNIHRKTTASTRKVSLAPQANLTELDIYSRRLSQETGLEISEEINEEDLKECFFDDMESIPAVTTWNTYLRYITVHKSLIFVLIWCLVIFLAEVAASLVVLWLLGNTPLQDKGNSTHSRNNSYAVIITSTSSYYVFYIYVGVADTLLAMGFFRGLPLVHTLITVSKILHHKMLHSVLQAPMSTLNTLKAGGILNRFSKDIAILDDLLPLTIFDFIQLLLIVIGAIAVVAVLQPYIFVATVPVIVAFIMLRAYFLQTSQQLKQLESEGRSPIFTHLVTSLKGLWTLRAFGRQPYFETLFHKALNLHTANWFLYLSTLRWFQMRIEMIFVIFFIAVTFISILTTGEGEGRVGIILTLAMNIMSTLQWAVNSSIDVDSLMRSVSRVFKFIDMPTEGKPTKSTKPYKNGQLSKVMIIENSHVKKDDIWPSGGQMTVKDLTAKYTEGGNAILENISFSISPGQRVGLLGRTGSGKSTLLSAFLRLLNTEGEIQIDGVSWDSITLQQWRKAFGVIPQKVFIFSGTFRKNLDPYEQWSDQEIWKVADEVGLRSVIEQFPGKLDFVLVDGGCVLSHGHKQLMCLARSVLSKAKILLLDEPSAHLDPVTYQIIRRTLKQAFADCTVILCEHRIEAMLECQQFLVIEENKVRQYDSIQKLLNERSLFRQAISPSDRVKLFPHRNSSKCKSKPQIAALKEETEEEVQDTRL
- Assay text: Cell Surface Expression-Horse Radish Peroxidase (CSE-HRP) assay, test compound without co-corrector;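 further: percent of on-plate 2 µM positive control corrector response over DMSO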
- Assay type: cell-based
- Run conditions: maximum at any tested concentration, normalized to positive control, without co-corrector
- Experimental: Cell Surface Expression-Horse Radish Peroxidase (CSE-HRP) Assay […] The % activity measured at each of the 8 test concentrations of the test compound added either without or with a co-corrector (2 μM of 3-[(2R,4R)-4-({[1-(2,2-difluoro-1,3-benzodioxol-5-yl)cyclopropyl]carbonyl}amino)-7-methoxy-3,4-dihydro-2H-chromen-2-yl]benzoic acid) was normalized to the on-plate positive control using the following formulae: […]

Quick one: Emax for Cc1ccccc1S(=O)(=O)NC(=O)C1CCc2c(-c3ccc(N(C)C)nc3)cccc21 (centres unmarked) ?
< 50%

So what does the record say about Emax for COc1cccc2c1CCC2C(=O)NS(=O)(=O)c1ccc(Cl)c([N+](=O)[O-])c1 (centres unmarked) ?
< 50%

###

- Target entity: F508delCFTR (Homo sapiens, UniProt P13569, DEL508-508)
- Construct: expressed in transfected cells; host or cells: CFBE41o- human lung-derived epithelial cells (CFBE41o-F508delCFTR-HRP), doxycycline-inducible
- Assay text: Cell Surface Expression-Horse Radish Peroxidase (CSE-HRP) assay, test compound with co-corrector
- Type: cell-based
- Run conditions: with 2 μM co-corrector
Collected EC50 values appear next to each entry.

Worked cases, answers included:
> print(dat)
                                   compound      result
1  O=C(NS(=O)(=O)c1cccc2ccccc12)C1CCCc2c(OCC3CCCCC3)ccc(Br)c21 (stereo not shown)  3 to 10 µM
2  CCC1(C(=O)NS(=O)(=O)c2cccc3ccccc23)CCc2c(Cl)cccc21 (stereo not shown)      < 3 µM
3  COc1ccc(C2CCC2)c2c1[C@H](C(=O)NS(=O)(=O)c1cccc3ccccc13)CC2      < 3 µM

Fill in the recorded EC50 for this compound, with F508delCFTR (Homo sapiens, UniProt P13569, DEL508-508) as test system: COc1cccc2c1CCC2C(=O)NS(=O)(=O)c1ccc(N2CCN(CC[C@@H]3OCCc4ccccc43)CC2)cc1 (stereo partly shown)
3 to 10 µM

###

- Target entity: F508delCFTR (Homo sapiens, UniProt P13569, DEL508-508)
- Construct: expressed in transfected cells; host or cells: CFBE41o- human lung-derived epithelial cells (CFBE41o-F508delCFTR-HRP), doxycycline-inducible
- Assay text: Cell Surface Expression-Horse Radish Peroxidase (CSE-HRP) assay, test compound without co-corrector;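 further: percent of on-plate 2 µM positive control corrector response over DMSO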
- Format: cell-based
- Run conditions: maximum at any tested concentration, normalized to on-plate positive control, without co-corrector
Attribute: Emax

Known Emax results, listed for orientation:
> print(dat)
                                   molecule                             target.entity      result
1  COc1ccc(-c2ccc(C(F)(F)F)nc2)c2c1C(C(=O)NS(=O)(=O)c1cccc3ccccc13)CCC2 (stereo not drawn) [III-171]  F508delCFTR (Homo sapiens, UniProt P13569, DEL508-508)  50 to 150%
2  CCC1(C(=O)NS(=O)(=O)c2cccnc2Cl)CCc2c(Cl)cccc21 (stereo not drawn) [III-132]  F508delCFTR (Homo sapiens, UniProt P13569, DEL508-508)       < 50%

Look up Emax for this molecule: COc1ccc(Br)c2c1C(C(=O)NS(=O)(=O)c1cccn3cnnc13)CC2 (stereo not drawn) [III-163]
< 50%

Looking for the measured Emax of Cc1ccccc1S(=O)(=O)NC(=O)C1CCc2c(-c3c(C)nn(C)c3C)cccc21 (stereo not drawn) [III-105] , can you help?
< 50%

What value of Emax has been reported for the following molecule? CCC1(C(=O)NS(=O)(=O)c2ccc(OC(F)(F)F)cc2)CCc2c(Cl)cccc21 (stereo not drawn) [III-119]
< 50%

What does the data say about its Emax? Entry: CCC1(C(=O)NS(=O)(=O)C2CCCCC2)CCc2c(Cl)cccc21 (stereo not drawn) [III-136]
< 50%

Given Nc1cccc(S(=O)(=O)NC(=O)C2CCCc3cccc(Cl)c32)n1 (stereo not drawn) [III-110] , state its recorded Emax.
< 50%

Can you share its Emax? I mean this molecule: Cc1ccc2c(c1)CCC2(C)C(=O)NS(=O)(=O)c1cccc(N)n1 (stereo not drawn) [III-108]
50 to 150%

Quick one: Emax of CCC1(C(=O)NS(=O)(=O)c2cccc(Cl)c2C)CCc2c(Cl)cccc21 (stereo not drawn) [III-156] ?
50 to 150%
